Please go through the items and note down their AUC dsA2/pep/pep.
System under test: dsA2: HLA-A*02:01(Y84C/A139C) disulfide mutant heavy chain / β2m complex (Homo sapiens, UniProt P04439, D140Y/D185E/D98H/E176V/E277Q/G131W/G231S/I119V/I121R/I166T/I218V/L300P/L318F/N151K/N90K/P208A/P217A/Q86G/Q94H/R138H/R169H/T345S/A163C/Y108C)
Construct: made in house; host or cells: Escherichia coli (pET3a)
Experimental details: native mass spectrometry (nMS) of peptide binding to empty dsA2
Measurement setup: acceleration voltage 50 V, cone 150 V; ratio 1:5; raw data; mean of >=3 measurements
Ends that are not written are not given here.
Give the value, in units of %, as a plain number.

Lookup: Item VPMVATV [VV7] has what recorded AUC dsA2/pep/pep?
Found: 0

Lookup: Item NLVPMV [NV6] has what recorded AUC dsA2/pep/pep?
Found: 1.9

Lookup: Item PMVATV [PV6] has what recorded AUC dsA2/pep/pep?
Found: 0.1

Lookup: Item NLVPMVAT [NT8] has what recorded AUC dsA2/pep/pep?
Found: 0.2

Lookup: Item YPNVNIHNF [YF9, reference compound] has what recorded AUC dsA2/pep/pep?
Found: 0

Lookup: Item NLVPMVA [NA7] has what recorded AUC dsA2/pep/pep?
Found: 0.5

Lookup: Item LVPMVATV [LV8] has what recorded AUC dsA2/pep/pep?
Found: 1.6

Lookup: Item GLGGGGGGV [GV9] has what recorded AUC dsA2/pep/pep?
Found: 1.1

---

System under test: dsA2: HLA-A*02:01(Y84C/A139C) disulfide mutant heavy chain / β2m complex (Homo sapiens, UniProt P04439, A163C/D140Y/D185E/D98H/E176V/E277Q/G131W/G231S/I119V/I121R/I166T/I218V/L300P/L318F/N151K/N90K/P208A/P217A/Q86G/Q94H/R138H/R169H/T345S/Y108C)
Construct: made in house; host or cells: Escherichia coli (pET3a)
Experimental details: biochemical
Format: binding
Ends that are not written are not given here.
# strict inequality: Kd < 8 µM yields Condition met, everything else yields Condition not met

Lookup: Please indicate whether the reported Kd of PMVATV [PV6] is strictly below 8 µM.
Found: Condition not met

Lookup: Please indicate whether the reported Kd of NLVPMVAT [NT8] is strictly below 8 µM.
Found: Condition met

Lookup: Please indicate whether the reported Kd of NLVPMV [NV6] is strictly below 8 µM.
Found: Condition not met

Lookup: Please indicate whether the reported Kd of NLVPMVA [NA7] is strictly below 8 µM.
Found: Condition met

Lookup: Please indicate whether the reported Kd of LVPMVATV [LV8] is strictly below 8 µM.
Found: Condition met

---

System under test: dsA2: HLA-A*02:01(Y84C/A139C) disulfide mutant heavy chain / β2m complex (Homo sapiens, UniProt P04439, D140Y/D185E/D98H/E176V/E277Q/G131W/G231S/I119V/I121R/I166T/I218V/L300P/L318F/N151K/N90K/P208A/P217A/Q86G/Q94H/R138H/R169H/T345S/A163C/Y108C)
Construct: made in house; host or cells: Escherichia coli (pET3a)
Experimental details: native mass spectrometry (nMS) of peptide binding to empty dsA2;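 further: native nano-electrospray MS on Q-Tof II in positive mode, dsA2 at 10 µM with peptide 50–200 µM, incubated ≥10 min on ice, argon collision gas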
Measurement setup: acceleration voltage 50 V, cone 150 V; ratio 1:5; raw data; mean of >=3 measurements
Ends that are not written are not given here.
Readout name: AUC dsA2/erucamide
In your response, the unit should come after the numeric value.

Lookup: Item NLVPMVAT [NT8] has what recorded AUC dsA2/erucamide?
Found: 1.6%

Lookup: Item LVPMVATV [LV8] has what recorded AUC dsA2/erucamide?
Found: 0.4%

Lookup: Item PMVATV [PV6] has what recorded AUC dsA2/erucamide?
Found: 5%

Lookup: Item NLVPMV [NV6] has what recorded AUC dsA2/erucamide?
Found: 2.9%

Lookup: Item NLVPMVA [NA7] has what recorded AUC dsA2/erucamide?
Found: 1.8%

Lookup: Item YPNVNIHNF [YF9, reference compound] has what recorded AUC dsA2/erucamide?
Found: 2%

Lookup: Item VPMVATV [VV7] has what recorded AUC dsA2/erucamide?
Found: 1.3%

Lookup: Item GLGGGGGGV [GV9] has what recorded AUC dsA2/erucamide?
Found: 1.7%

src = paper PMC9127112
